test_description: Bio-availability: blood plasma level after injection of calves
Type: in vivo
assay_conditions: bovine, plasma, 1 mg/kg, day 35, calf 3, 1 mg/kg injection
recorded_metric: concentration at 840 h (ng/mL)
Number only, in ng/mL; omit the unit.

Q) Report concentration at 840 h for Nc1ccc(F)c(C(=O)NC(=O)Nc2ccc(Cl)c(Oc3ncc(C(F)(F)F)cc3Cl)c2)c1F
A) 2

====

test_description: Bio-availability: blood plasma level after injection of calves
Assay type: in vivo
assay_conditions: bovine, plasma, 1 mg/kg, day 1, calf 1, 1 mg/kg injection
recorded_metric: concentration at 24 h
Returns: string containing the numeric result and its unit.

Q) For the molecule O=C(NC(=O)c1c(F)cccc1F)Nc1ccc(Cl)c(Oc2ncc(C(F)(F)F)cc2Cl)c1 [(A)] , report concentration at 24 h.
A) 7 ng/mL
